System: E. cloacae SS 07
Assay type: cell-based
Details: Brain Heart Infusion, estolate and RV11-RV15 previously hydrolized, unit assumed
Please respond with reported MIC for every item in the list.

Answered examples (2):
compound	MIC
CCC(=O)O[C@H]1[C@H](O[C@@H]2[C@@H](C)[C@H](O[C@H]3C[C@@](C)(OC)[C@@H](O)[C@H](C)O3)[C@@H](C)C(=O)O[C@H](CC)[C@@](C)(O)[C@H](O)[C@@H](C)C(=O)[C@H](C)C[C@@]2(C)O)O[C@H](C)C[C@@H]1N(C)C [RV14]	> 200 µg/mL
CCC(=O)O[C@H]1[C@H](O[C@@H]2[C@@H](C)[C@H](O[C@H]3C[C@@](C)(OC)[C@@H](O)[C@H](C)O3)[C@@H](C)C(=O)O[C@H](CC)[C@@](C)(O)[C@H](O)[C@@H](C)C(=O)[C@H](C)C[C@@]2(C)O)O[C@H](C)C[C@@H]1N(C)C [erythromycin estolate, reference compound]	> 200 µg/mL

// moving on: another record for MIC
# lookup: MIC of CC[C@H]1OC(=O)[C@H](C)[C@@H](O[C@H]2C[C@@](C)(OC)[C@@H](O)[C@H](C)O2)[C@H](C)[C@@H](O[C@@H]2O[C@H](C)C[C@H](N(C)C)[C@H]2O)[C@](C)(O)C[C@@H](C)C(=O)[C@H](C)[C@@H](O)[C@]1(C)O [RV03, erythromycyn-thiazolidin-carboxylate] > 200 µg/mL

###

Test system: Strept. haemolyticus SS 18
Type: cell-based
Details: Brain Heart Infusion, estolate and RV11-RV15 previously hydrolized, unit assumed
observation.type: MIC (µg/mL)
Numbers only, in µg/mL.

Answered examples (3):
molecule	MIC [µg/mL]
CCC(=O)O[C@H]1[C@H](O[C@@H]2[C@@H](C)[C@H](O[C@H]3C[C@@](C)(OC)[C@@H](O)[C@H](C)O3)[C@@H](C)C(=O)O[C@H](CC)[C@@](C)(O)[C@H](O)[C@@H](C)C(=O)[C@H](C)C[C@@]2(C)O)O[C@H](C)C[C@@H]1N(C)C [RV15]	3
CCC(=O)O[C@H]1[C@H](O[C@@H]2[C@@H](C)[C@H](O[C@H]3C[C@@](C)(OC)[C@@H](O)[C@H](C)O3)[C@@H](C)C(=O)O[C@H](CC)[C@@](C)(O)[C@H](O)[C@@H](C)C(=O)[C@H](C)C[C@@]2(C)O)O[C@H](C)C[C@@H]1N(C)C [RV14]	0.8
CCC(=O)O[C@H]1[C@H](O[C@@H]2[C@@H](C)[C@H](O[C@H]3C[C@@](C)(OC)[C@@H](O)[C@H](C)O3)[C@@H](C)C(=O)O[C@H](CC)[C@@](C)(O)[C@H](O)[C@@H](C)C(=O)[C@H](C)C[C@@]2(C)O)O[C@H](C)C[C@@H]1N(C)C [RV11]	1.5

// moving on: another record for MIC
Record lookup: for Strept. haemolyticus SS 18, what MIC belongs to CC[C@H]1OC(=O)[C@H](C)[C@@H](O[C@H]2C[C@@](C)(OC)[C@@H](O)[C@H](C)O2)[C@H](C)[C@@H](O[C@@H]2O[C@H](C)C[C@H](N(C)C)[C@H]2O)[C@](C)(O)C[C@@H](C)C(=O)[C@H](C)[C@@H](O)[C@]1(C)O [RV01, erythromycin alpha-mercaptosuccinate] ? 1.5
